target: T1, Mouse Gal3 protein (recombinant) (mouse, UniProt P16110 1-264); experiment: BLI; His-tagged CACNG1 (30-109) captured on Ni-NTA biosensors, Gal3 in a concentration gradient, Octet (ForteBio), 30 °C; conditions: both partners purified
T1 construct: Galectin-3, mouse, bought protein; R&D is named as the source only for the BLI assay; also called galectin-3; source: bought: R&D
T1 sequence (P16110 whole entry): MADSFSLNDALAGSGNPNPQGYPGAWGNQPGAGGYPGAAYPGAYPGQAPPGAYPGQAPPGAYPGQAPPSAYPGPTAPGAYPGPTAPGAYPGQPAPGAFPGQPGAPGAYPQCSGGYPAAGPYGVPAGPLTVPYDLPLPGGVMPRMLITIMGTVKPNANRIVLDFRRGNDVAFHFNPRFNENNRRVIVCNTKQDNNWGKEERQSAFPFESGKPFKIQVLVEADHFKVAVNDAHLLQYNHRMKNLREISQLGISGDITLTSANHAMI
readout-name: Kd (nM)
Only the number, expressed in nM, is required.

Short answer for Extracellular domains of mouse CACNG1 (30-109 AA) with His tags (domain or fragment, UniProt O70578 30-109, looked up, includes the two glycosylation sites, CACNG1, mouse, extracellular domains, residues 30-109, including the two glycosylation sites) DHWAVLSPHLEHHNETCEAAHFGLWRICTARVAVHNKDKSCEHVTPSGEKNCSYFRHFNPGESSEIFEFTTQKEYSISAA : Kd was 180
